biological target: T1, human MDM2 (residues 2–125) (human, UniProt Q00987 2-125); test: stopped-flow fluorescence; pseudo-first order, peptide 0.125 μM final, MDM2 in excess (typically 1 μM to 3 μM); Trp23 fluorescence, excitation 280 nm, 315 nm cut-off; 15 °C; 50 mM Tris-HCl pH 8.0, 250 mM NaCl, 0.5 mM TCEP; Kd as koff/kon assuming a two-state reaction; conditions: both partners purified
T1 construct: MDM2 (murine double minute 2), human, N-terminal domain, residues 2-125; no tag is named; also called N-terminal domain of MDM2
T1 sequence (Q00987 2-125): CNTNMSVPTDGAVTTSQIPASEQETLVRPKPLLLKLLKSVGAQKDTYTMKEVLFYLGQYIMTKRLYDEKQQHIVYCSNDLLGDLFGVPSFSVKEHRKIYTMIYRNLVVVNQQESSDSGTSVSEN
Metric Name: pKd
Answer as the number alone; pKd is minus log10 of concentration in mol/L.

binder="Ac-EEFDDLWKLLPEN-NH2 (also called double phosphomimetic mutant) [Ac-EeFdDLWKLLPEN-NH2 (P53-E18-D20)]" reported=5.40
binder="Ac-EEFEDLWKLLPEN-NH2 [Ac-EeFeDLWKLLPEN-NH2 (P53-E18-E20)]" reported=5.22
binder="Ac-EEFSDLWKLLPEN-NH2 [Ac-EeFSDLWKLLPEN-NH2 (P53-E18)]" reported=5.38

We next turn to a different binder, shown below.
// pKd lookup, binder = Ac-ETFEDLWKLLPEN-NH2 [Ac-ETFeDLWKLLPEN-NH2 (P53-E20)] , result: 6.05
